Tested on: picornaviruses (CVB1, HRV-A2, HRV-A23, EV-68)
Protocol description: Anti-picornavirus cytopathic effect (CPE) reduction assay on HeLa H1 cells
Format: cell-based
Condition context: Enterovirus B, HeLa H1, 48 h, HeLa H1 cells, 48 h, category from averaging the EC50 values from four picornaviruses (CVB1, HRV-A2, HRV-A23, EV68); read-out: EC50 values of the compounds determined in the anti-picornavirus assay
pEC50: −log10 of the molar value.
Assay readout: pEC50

- COc1ccccc1N(C=O)C(C)C(=O)C(=O)NCC(C)(C)C (stereo not drawn): 5.00 to 6.00
- O=C(NCCF)C(=O)[C@H]1CCC(=O)N1Cc1ccccc1: > 6.00
- CC(NS(=O)(=O)Cc1ccccc1)C(=O)C(=O)NCC1CC1 (stereo not drawn): < 5.00
- CC(C(=O)C(=O)NCC1CC1)N(Cc1ccccc1)S(C)(=O)=O (stereo not drawn): < 5.00
- CC(C(=O)C(=O)NCc1cccc(Cl)c1)N(C)C=O (stereo not drawn): < 5.00
- CC(C(=O)C(=O)NCC1CCCC1)N(C=O)Cc1ccccc1 (stereo not drawn): > 6.00
- CC(C)CNC(=O)C(=O)C(C)N(C=O)CC(F)(F)F (stereo not drawn): 5.00 to 6.00
- O=C(COCC1CCCCC1)C(=O)NCC1CC1: < 5.00
- O=C(NC1CN(C(=O)C2CCCC2)C1)C(=O)[C@H]1CCC(=O)N1Cc1ccccc1: 5.00 to 6.00
- COc1ccccc1N(C=O)C(C)C(=O)C(=O)NCC1CC1 (stereo not drawn): 5.00 to 6.00

Qu. Form field: reported pEC50 of `N#CCCNC(=O)C(=O)[C@H]1CCC(=O)N1Cc1ccccc1`
Ans. 5.00 to 6.00

Qu. Entry `CC(C)C(=O)N1CCC(NC(=O)C(=O)[C@H]2CCC(=O)N2Cc2ccccc2)CC1` please
Ans. 5.00 to 6.00

Qu. Do the same for `N#CC1(CNC(=O)C(=O)[C@H]2CCC(=O)N2Cc2ccccc2)CC1` please
Ans. 5.00 to 6.00

Qu. Now consider `O=C(NC1CCN(C(=O)NC2CCCC2)CC1)C(=O)[C@H]1CCC(=O)N1Cc1ccccc1` .
Ans. > 6.00

Qu. Proceed to `O=C(NC1CCN(S(=O)(=O)C2CC2)CC1)C(=O)[C@H]1CCC(=O)N1Cc1ccccc1`
Ans. > 6.00

Qu. Next up: O=C(NC1CC1)C(=O)C1CCC(=O)N1Cc1ccc(Cl)c(F)c1 (stereo not drawn)
Ans. 5.00 to 6.00

Just for reference, patent US11091428B2 is where these values come from.
